Would you mind telling me the reported inhibition at 2 µM of each entry?
- targetOfAssay: aldose reductase of kidney (Canis lupus familiaris)
- methodNotes: Inhibitory effect on aldose reductase of kidney
- Assay type: biochemical, dog
- recordedConditions: concentration 2x10^-6 M; read-out: Degree of inhibition for aldose reductase (%)

For each listed entry, give its inhibition at 2 µM.
1. O=C(O)CCc1nc2c3nc(C(=O)O)cc(C(=O)O)c3c3[nH]c(C(=O)O)cc3c2o1
2. CSCCc1nc2c3nc(C(=O)O)cc(C(=O)O)c3c3[nH]c(C(=O)O)cc3c2o1
3. NC(=O)CCc1nc2c3nc(C(=O)O)cc(C(=O)O)c3c3[nH]c(C(=O)O)cc3c2o1
4. O=C(O)c1cc(C(=O)O)c2c(n1)C(=O)C(=O)c1cc(C(=O)O)[nH]c1-2 [PQQ, pyrroloquinolinequinone, reference compound]
5. O=C(O)c1cc(C(=O)O)c2c(n1)c1nc(Cc3ccc(O)cc3)oc1c1cc(C(=O)O)[nH]c12 [4-Hydroxybenzyl OPQ]
6. O=C(O)c1cc(C(=O)O)c2c(n1)c1nc(CO)oc1c1cc(C(=O)O)[nH]c12 [Hydroxymethyl OPQ]
7. CC(C)c1nc2c3nc(C(=O)O)cc(C(=O)O)c3c3[nH]c(C(=O)O)cc3c2o1

49.9%
54.9%
75.7%
17.3%
49.4%
68.2%
48.1%

What does the data say about its inhibition at 2 µM? Entry: O=C(O)c1cc(C(=O)O)c2c(n1)c1nc(Cc3ccccc3)oc1c1cc(C(=O)O)[nH]c12 46.4%
